The binders listed here are annotated with their Maximum OD.
TARGET_OF_ASSAY: T1, human OX40 protein (Acro biosystem, #OX0-H5224) (human, UniProt P43489 29-216)
T1 construct: Bought recombinant protein
T1 sequence (looked up): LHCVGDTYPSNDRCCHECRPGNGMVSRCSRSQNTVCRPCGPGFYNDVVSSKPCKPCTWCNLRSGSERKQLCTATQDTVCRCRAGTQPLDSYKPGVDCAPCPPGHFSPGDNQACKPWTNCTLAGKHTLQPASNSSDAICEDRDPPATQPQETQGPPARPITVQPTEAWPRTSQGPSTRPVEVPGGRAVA
METHOD_SUMMARY: ELISA, coated human OX40 protein

>  <BINDER>
PR002072 (antibody, human IgG1, V domains shown, no light chain; also called anti-OX40 HCAb antibody) VH: EVQLLESGGGLVQPGGSLRLSCAASGFTFSSYAMSWVRQASGKGLEWISAISGSGGSTYYADSVRGRFTISRDNSKNTLYLQMNSLRADDTAVYYCANGMTGTTDVDFWGQGTPVTVSS

>  <Maximum OD>
2.47 OD

$$$$

Provide Maximum OD value for the following binder: PR002067 (antibody, human IgG1, V domains shown, no light chain; also called anti-OX40 HCAb antibody) VH: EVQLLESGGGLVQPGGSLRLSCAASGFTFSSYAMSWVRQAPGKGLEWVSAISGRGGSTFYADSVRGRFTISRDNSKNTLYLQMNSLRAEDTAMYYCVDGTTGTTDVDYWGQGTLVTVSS
2.38 OD

Provide Maximum OD value for the following binder: PR002064 (antibody, human IgG1, V domains shown, no light chain; also called anti-OX40 HCAb antibody) VH: EVQLVETGGGLVQPGGSLRLSCAASGFTFSSYAMSWVRQAPGKGQEWVSAISGSGGSTFYADSVRGRFTISRDNSKNTLYLQMSSLRAEDTAVYYCANGMTGTTDVDYWGQGTLVTVSS
2.28 OD

Provide Maximum OD value for the following binder: PR002075 (antibody, human IgG1, V domains shown, no light chain; also called anti-OX40 HCAb antibody) VH: EVQLVETGGGLIQPGGSLRLSCAASGFTFSSYAMSWVRQAPGKGLEWVSAISGSGGNTYYADSVRGRFTISRDNSKNTLYLQMNSLRAEDTAVYYCANGITGTTDVDYWGQGTRVTVSS
2.48 OD

All figures here come from patent US20230295324A1.
